Provenance of the data: paper PMC3140938

# Study target: hGRα (Homo sapiens, UniProt P04150)
# Sequence (P04150 whole entry): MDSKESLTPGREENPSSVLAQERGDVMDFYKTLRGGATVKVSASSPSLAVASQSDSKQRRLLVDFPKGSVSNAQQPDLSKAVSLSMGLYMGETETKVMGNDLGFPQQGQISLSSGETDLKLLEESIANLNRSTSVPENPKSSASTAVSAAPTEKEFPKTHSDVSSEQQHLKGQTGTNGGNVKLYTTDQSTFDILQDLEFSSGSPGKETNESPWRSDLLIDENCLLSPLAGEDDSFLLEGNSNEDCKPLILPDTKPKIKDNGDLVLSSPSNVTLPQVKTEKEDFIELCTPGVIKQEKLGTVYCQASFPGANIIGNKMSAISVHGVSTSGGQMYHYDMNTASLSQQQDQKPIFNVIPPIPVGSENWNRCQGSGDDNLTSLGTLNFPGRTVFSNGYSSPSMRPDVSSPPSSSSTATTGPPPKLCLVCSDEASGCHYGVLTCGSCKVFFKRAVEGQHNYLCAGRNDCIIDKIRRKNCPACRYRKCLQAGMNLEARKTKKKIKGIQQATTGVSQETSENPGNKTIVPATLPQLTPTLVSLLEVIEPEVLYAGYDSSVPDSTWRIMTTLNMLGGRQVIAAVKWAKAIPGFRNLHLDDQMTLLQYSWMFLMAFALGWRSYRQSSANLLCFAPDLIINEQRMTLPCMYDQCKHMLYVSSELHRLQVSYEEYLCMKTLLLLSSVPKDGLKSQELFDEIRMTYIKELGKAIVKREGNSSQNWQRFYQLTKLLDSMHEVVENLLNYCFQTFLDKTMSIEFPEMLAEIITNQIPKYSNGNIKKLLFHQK
# Run description: cell-based
# Assay type: cell-based
Property label: EC50 (nM)
All answers are understood in nM, so give the number only.

Exercise: Consider the molecule C[C@]12C[C@H](O)[C@H]3[C@@H](CCC4=CC(=O)CC[C@@]43C)[C@@H]1CC[C@@H]2C(=O)CO [Corticosterone, corticosterone] . State its measured EC50.
Solution: 80

Exercise: Please list EC50 recorded for the molecule C[C@]12CCC(=O)C=C1CC[C@@H]1[C@@H]2[C@@H](O)C[C@]2(C=O)[C@@H](C(=O)CO)CC[C@@H]12 [Aldosterone]
Solution: 495

Exercise: Check the records and state EC50 for C[C@]12C=CC(=O)C=C1CC[C@H]1[C@@H]3C[C@@H](O)[C@](O)(C(=O)CO)[C@@]3(C)C[C@H](O)[C@@]12F [Triamcinolone, triamcinolone]
Solution: 19
